Tested on: KRAS-mutant PDC complex spheroid viability;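 further: viability read after seven days of compound exposure; 100% = DMSO vehicle-treated spheroids so lower means less viable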
Experimental details: Anticancer human tumor 186277-243-T-J2-PDC patient-derived colon adenocarcinoma cell line growth inhibition [KRAS2]
Measurement conditions: second compound 0.316 µM; first compound 0.001 µM; active compounds read low
The compounds listed here are annotated with their viability, T/C.

# Compound, viability, T/C / %
records = [
    ("Cn1ncnc1[C@H]1c2n[nH]c(=O)c3cc(F)cc(c23)N[C@@H]1c1ccc(F)cc1 + C=CC(=O)N1CCN(c2nc(=O)n(-c3c(C)ccnc3C(C)C)c3nc(-c4c(O)cccc4F)c(F)cc23)C(C)C1", 114),
    ("CN(C)C/C=C/C(=O)Nc1cc2c(Nc3ccc(F)c(Cl)c3)ncnc2cc1O[C@H]1CCOC1 + C=CC(=O)N1CCN(c2nc(OCC3CCCN3C)nc3c2CCN(c2cccc4cccc(C)c24)C3)CC1CC#N", 102),
    ("CN(C)C/C=C/C(=O)Nc1cc2c(Nc3ccc(F)c(Cl)c3)ncnc2cc1O[C@H]1CCOC1 + C=CC(=O)N1CCN(c2nc(=O)n(-c3c(C)ccnc3C(C)C)c3nc(-c4c(O)cccc4F)c(F)cc23)C(C)C1", 97.7),
    ("CN(C)C/C=C/C(=O)Nc1cc2c(Nc3ccc(F)c(Cl)c3)ncnc2cc1O[C@H]1CCOC1 + CNCc1ccccc1-c1csc(C(C)Nc2nc(C)nc3cc(OC)c(OC)cc23)c1", 96.2),
    ("CN(C)C/C=C/C(=O)Nc1cc2c(Nc3ccc(F)c(Cl)c3)ncnc2cc1O[C@H]1CCOC1 + CC1OCC2(CCN(c3cnc(Sc4ccnc(N)c4Cl)c(N)n3)CC2)C1N", 101),
    ("CC(C)n1nc(-c2ccc3oc(N)nc3c2)c2c(N)ncnc21 + CC1OCC2(CCN(c3cnc(Sc4ccnc(N)c4Cl)c(N)n3)CC2)C1N", 100),
    ("CN(C)C/C=C/C(=O)Nc1cc2c(Nc3ccc(F)c(Cl)c3)ncnc2cc1O[C@H]1CCOC1 + COc1cc2nc(C)nc(NC(C)c3cc(N)cc(C(F)(F)F)c3)c2cc1OC1CCOC1", 105),
]
